Tested on: WA09 hES cells
protocol-description: Phase 2 targeted biomarker assay, ornithine/cystine ratio, 9-point dose response
outcome-measure: Classification by o/c ratio in the targeted biomarker assay

query-smiles: CC(C)(S)[C@@H](N)C(=O)O
result: correctly classify

query-smiles: CC1=C(/C=C/C(C)=C/C=C/C(C)=C/CO)C(C)(C)CCC1
result: correctly classify

====

Test system: hES cells
protocol-description: devTOX computational model predictions (Version 2.0, Version 2.1) from hES cell metabolomics
Type: cell-based, human
measurement-parameters: single dose per treatment (Dose column)
outcome-measure: Model Predictions Version 2.0

molecule: CC(=O)CC(c1ccccc1)c1c(O)c2ccccc2oc1=O (stereo not drawn) [Warfarin]
test-target: hES cells
Model Predictions Version 2.0: Ter
--
molecule: C=CC=O [Acrolein]
test-target: hES cells
Model Predictions Version 2.0: Ter
--
molecule: O=C1CCC(N2C(=O)c3ccccc3C2=O)C(=O)N1 (stereo not drawn) [Thalidomide]
test-target: hES cells
Model Predictions Version 2.0: Ter
--
molecule: CCCC(CCC)C(=O)O [Valproic Acid]
test-target: hES cells
Model Predictions Version 2.0: Ter
--
molecule: O=C1O[C@H]([C@@H](O)CO)C(O)=C1O [Ascorbic Acid]
test-target: hES cells
Model Predictions Version 2.0: Non

# evaluate next
The measured Model Predictions Version 2.0 associated with NC(=O)NO [Hydroxyurea] reads Ter
